System: Leishmania braziliensis
Experiment: Antileishmanial activity against Leishmania braziliensis MHOM/BR/95/IOCL-2033 promastigotes after 24 hrs
Type: functional, organism-based
assay metric: pIC50
Please treat pIC50 as minus the base-10 logarithm of the molar concentration.

O=C1c2ccccc2-c2c3c(cc4ccnc1c24)OCO3 :: 4.23
Nc1nccc(-c2nccc3c4ccccc4n(O)c23)n1 :: 3.60
Nc1nccc(-c2nccc3c2[nH]c2ccccc23)n1 :: 4.46
COc1c(OC)c2c3c(nccc3c1OC)C(=O)c1ccccc1-2 :: 3.49

// moving on: another record for pIC50
// field: pIC50; key: `N=C(N)c1ccc(OCCCCCOc2ccc(C(=N)N)cc2)cc1` ; value = 5.54
